# Tested on: Klebsiella pneumoniae
# method: Antibacterial activity against Klebsiella pneumoniae clinical isolate assessed as bacterial growth inhibition incubated overnight by broth microdilution assay
# Format: functional
value.type: MIC (µg/mL)

>  <compound>
CCCCOC1OC(=O)c2cc3ccc4c(c3c(-c3ccc5c(c3)OCO5)c21)OCO4 (centres undefined)

>  <test.system>
Klebsiella pneumoniae

>  <value.type>
MIC

>  <unit.text>
µg/mL

>  <val>
500

$$$$
>  <compound>
COC1OC(=O)c2cc3ccc4c(c3c(-c3ccc(O)c(O)c3)c21)OCO4 (centres undefined)

>  <test.system>
Klebsiella pneumoniae

>  <value.type>
MIC

>  <unit.text>
µg/mL

>  <val>
62.5

$$$$
>  <compound>
COc1cc([C@@H](O)[C@@H]2CO[C@H](c3ccc(O)c(OC)c3)[C@H]2CO)ccc1O

>  <test.system>
Klebsiella pneumoniae

>  <value.type>
MIC

>  <unit.text>
µg/mL

>  <val>
62.5

$$$$
>  <compound>
C=CCOC(=O)c1cc2ccc3c(c2c(-c2ccc4c(c2)OCO4)c1C=O)OCO3

>  <test.system>
Klebsiella pneumoniae

>  <value.type>
MIC

>  <unit.text>
µg/mL

>  <val>
500

$$$$

Source of measurements: ChEMBL document CHEMBL5215008
